B1: TPR t1 (parent)
chain: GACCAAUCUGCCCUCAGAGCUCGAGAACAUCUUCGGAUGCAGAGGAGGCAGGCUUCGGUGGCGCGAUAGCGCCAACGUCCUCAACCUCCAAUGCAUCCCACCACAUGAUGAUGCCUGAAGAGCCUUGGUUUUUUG

variants of: B1; experiment: polymerase ribozyme fitness, log enrichment relative to wild type (log ratio); higher = more active; in vitro selection for triplet polymerase activity
Could you please report measured polymerase ribozyme fitness (log ratio) for the items listed next?
Give your answer as a number; write no unit.

*Q* What value of polymerase ribozyme fitness (log ratio) has been recorded for this entry: GCCCAAUCUGCCCUCAGAGCUCGAGAACAUCUUCGGAUGCAGAGGAGGCAGGCUUCGGUGGCGCGAUAGCGUCAACGUCCUCAACCUCCAAUGCAUCCCACCACAUGAUGAUGCCUGAAGAGCCUUGGUUUUUUG [A2C C72U]
*A* -2.38

*Q* What value of polymerase ribozyme fitness (log ratio) has been recorded for this entry: GACCAAUCUGCCCUCGGAGCUCGAGAACAUCUUCGGAUGCAGAGGAGGAAGGCUUCGGUGGCGCGAUGGCGCUAACGUCCUCAACCUCCAAUGCAUCCCACCACAUGAUGAUGCCUGAAGAGCCUUGGUUUUUUG [A16G C49A A68G C73U]
*A* -4.78

*Q* What value of polymerase ribozyme fitness (log ratio) has been recorded for this entry: GACCAAUCUGCCCUCAGAGCUCGAGAACAUCUUCGGAUGCAGAGUAGGCAGGUUUCGGUGGCGCGAUAGCGCCAACGUCCUCAACCUCCAAUGCAUCCCACCACAUGAUGAUGCCUGAAGAGCCUUGGUUUUUUG [G45U C53U]
*A* -2.81

*Q* What value of polymerase ribozyme fitness (log ratio) has been recorded for this entry: GACCAAUCUGCCCUCAAAGCUCGAGAACAUCUUCGGAUGCAGAGGAGGCAGGCUUCGGUGACGCGAUAGCGCCAACGUCCUCAACCUCCAAUGCAUCCCACCACAUGAUGAUGGCUGAAGAGCAUUGGUUUUUUG [G17A G61A C114G C124A]
*A* -3.95

*Q* What value of polymerase ribozyme fitness (log ratio) has been recorded for this entry: GACCAAUCUGCCCUCAGAGCUCGAGAACAUCUUCGGAUGCAGAGGAGGCAGGCUUGGGUGGCGCGAUAGCGCCAACGUCCUCAACAUCCAAUGCAUCCCACCACAUGAUGAUGCCUGAAGAGCCUUGGUUUUUUG [C56G C86A]
*A* -1.6

*Q* What value of polymerase ribozyme fitness (log ratio) has been recorded for this entry: GACCAAUCUGCCUUCAGAGCUCGAGAACAUCUUCGGAUGCAGAGGAGGCAGGCUUCGGUAGCGCGAUAGCGCCAACGUCCUAAACCUCCAAUGCAUCCCACCACAUGAUGAUGCCUGAAGAGCCUUGGUUGUUUG [C13U G60A C82A U131G]
*A* -0.416

*Q* What value of polymerase ribozyme fitness (log ratio) has been recorded for this entry: GACCAAGCUGCCCUCAGAGCUCGAGAACAUCUUCGGAUGCAGAGGAGGCAGGCUUCGGUGGCGCGAUAGCGCCAACGUCCUCAACCUCCAAUGCAUCCCACCAAAUGAUGAUGCCUGAAGAGGCUUGCUUUUUUG [U7G C104A C123G G128C]
*A* -3.67

*Q* What value of polymerase ribozyme fitness (log ratio) has been recorded for this entry: GACCGAUCUGCCCUCAGAGCUCGAGAACAUCUUCGGAUGCAGAGGAGGCAGGCCUCGGUGGCGCGAUACCGCCAACGUCCUCAACCUCCAAUGCAUCCCACCACAUGAUGAUGCCUGGAGAGCCUUGGAUUUUUG [A5G U54C G69C A118G U129A]
*A* -2.84

*Q* What value of polymerase ribozyme fitness (log ratio) has been recorded for this entry: GACCAAUCUGCCCUCAGAGCUCGAGAACAUCUUCGGAUGCAGAGGAAGCAGGCUUCGGUGACGCGAUAGCGCCAACGUCCUCACCCUCCAAUGCAUCCCACCACAUGAUGAUGCCUGAAGAGCCUUGGUUUUUUG [G47A G61A A84C]
*A* -1.29

*Q* What value of polymerase ribozyme fitness (log ratio) has been recorded for this entry: GACCAAUCUGCCCUCAGAGUUCGAGAACAUCUUCGGAUGCAGAGAAGGCAGGCUUCGGUGGCGCGAUAGCGCCAACGUCCUCAACCUCCAAUGCAUCCCACCACAUGAUGAUGCCUGAAGAGCCUUGGUUUUUUG [C20U G45A]
*A* -2.57

*Q* What value of polymerase ribozyme fitness (log ratio) has been recorded for this entry: GACCAAUCUGCCCUCAGAGCUCGAGAACAUCUUCGGAUGCAGAGGAGGCAGCCUUCGGUGCCGCGAUAGCGCCAACGUCCUCAACCUCCAAUGCAUCCCACCACAUGAUGAUGGCUGAAUAGCCUUGGUUUUUUG [G52C G61C C114G G120U]
*A* -5.46

*Q* What value of polymerase ribozyme fitness (log ratio) has been recorded for this entry: GACCAAUCUGCCCUAAGAGCUCGAGAACAUCUUCGGAUGCAGAGGAGGCAGGCUUCGGUGGCGCGAUAGCGCCAACGUCCUCAACCUCCAAUGCAUCCCACCACAUGAUGAUGCCUGAACAGCCUUGGUUUUUUG [C15A G120C]
*A* -0.2

*Q* What value of polymerase ribozyme fitness (log ratio) has been recorded for this entry: GACCAAUCUGCCCUCAGAGCUCGAGAACAUCUUCGGAUGCAGAGGAGGCAGGCUUCGGUGGCGCGAUAGCGCCAACGUCCUCAACCACCAAUGCAUCCCACCACAUGAUGGUGCCUGAAGAGCCUUCGUUAUUUG [U87A A111G G127C U131A]
*A* -3.23

*Q* What value of polymerase ribozyme fitness (log ratio) has been recorded for this entry: GACCAAUCUGCCCUCAGAGCUCGAGAACAUCUUCGGAUGCAGAGGUGGCAGGCUUCGGUGGGGCGAUAGCGCCAACGUCCUCAACCUCCAAUGCAUCCCACCACAUGAUGAGGCCUGAAGAGCCUUGGUUUUUUG [A46U C62G U112G]
*A* -2.14

*Q* What value of polymerase ribozyme fitness (log ratio) has been recorded for this entry: GACCAAUCUGCCCUGAGAGCUCGAGAACAUCUUCGGAUGCAGAGGAGGCAGGCUUCGGUGGCGCGAUAGCGCCAACGUCCUCAACCUCCAAUGCUUCUCACCACAUGAUGAUGCCUGAAGAGCCUUGGUUUUUUG [C15G A95U C98U]
*A* -5.14

*Q* What value of polymerase ribozyme fitness (log ratio) has been recorded for this entry: GACCAAUCUGCCCUUAGAGCUCGAGAACAUCUUCGGAUGCAGAGGAGGCAGGCUUCGGUGGCGCGAUAGCGCCAACGUCCUCAACCUCCAAUGCAUCCCACCACUUGAUGAUGCCUGAAGAGCCUUGGUUUUUUG [C15U A105U]
*A* -3.42

*Q* What value of polymerase ribozyme fitness (log ratio) has been recorded for this entry: GACCAAUCUGCCCUCAGAGCUCGAGAACAUCUUUGGAUGCAGAGGAGGCAGGCUUCGGUGGCGCGAUAGCGACAACGUCCUCAACCUCCAAUGCAUCCCACCACAUGAUGAUGCCUGAAGAGCCUUGGUUUUUUG [C34U C72A]
*A* -3.94

*Q* What value of polymerase ribozyme fitness (log ratio) has been recorded for this entry: GACCAAUCUGCCCUCAGAGCUCGAGAACAUCUUCGGAUGCAGAAGAGGCAGGCUUCGGUGGCGCGAUAGCGCCAACGUCCUCAACCUCCAAUGCAUCCCACCACAUGAUGAUGCCUGAUGAGCCUUGGUUUUUUG [G44A A119U]
*A* -0.987

*Q* What value of polymerase ribozyme fitness (log ratio) has been recorded for this entry: GACCAAUCUGCCCUCAGAGCUCGAGAACAUCUUCGGAUGCAGAAGAGGCAGGGUUCGGUGGCUCGAUAGCGCCAACGUCCUCAACCUCCAAUGCAUCCCACAACGUGAUGAUGCCUCAAGAGCCUUGGUUUUUUG [G44A C53G G63U C102A A105G G117C]
*A* -7.23

*Q* What value of polymerase ribozyme fitness (log ratio) has been recorded for this entry: GACCAAUCUGCCCUCAGAGCUCGAGGACAUCUUCGGAUGCAGAGCAGGCAGGCUUCGGUGGCGCGAUAGCGCCAUCGUCCUCAACCUCCAAUGCAUCCCACCACAUGAUGAUGCCUGAAGAGCCUUGGUUUUUUG [A26G G45C A75U]
*A* -4.25

*Q* What value of polymerase ribozyme fitness (log ratio) has been recorded for this entry: GACCAAUCUGCCCUCAGAGCUCGAGAACAUCUUCGGAUGCAGAGGAGGCAGGCUUCGGUGGCGCGAUAGCGCCAACGUCCUCAACCUCCAAUGCAUCCCACCACAAGAUGAUGCCUGAAGAGCAUUGGUUUUUUG [U106A C124A]
*A* 1.81

*Q* What value of polymerase ribozyme fitness (log ratio) has been recorded for this entry: GACCAAUCUGCCCUCAGAGCUCGAGAACAUCUUCGGAUGCAGAGGAGGCAGGCUUCGGUGGCGCGAUAGCGCCAACGUCCUCAACCUCCAAUGCAUCCCACCACAUGAUGAUGCCUGAAGAGCCUUGGUUUUGUC [U133G G135C]
*A* 0.463

*Q* What value of polymerase ribozyme fitness (log ratio) has been recorded for this entry: GACCAAUCUGCCCGCAGAGCUCGAGAACAUCUUCGGAUGCAGAGGAGGCAGGCCUCGGUGGCGCGAUAGCGCCAACGUCCUCAACCUCCAAUGCAUCCCACCACAUGAUGAUGCCUGAAGAGCCUUGGUUUUUUG [U14G U54C]
*A* -2.42

*Q* What value of polymerase ribozyme fitness (log ratio) has been recorded for this entry: GACCAAUCUGCCCUCAGAGCUCGAGAACAUCUUCGGAUGCAGAGGAGGCAGGCUUCGGUGGCGCGAUAGCAGCAACGUCCUCAACCUCCAAUGCAUCCCACCACAUGAUGAUGUCUGAAGAGCCUUGGUUUUUUG [G71A C72G C114U]
*A* -4.69

*Q* What value of polymerase ribozyme fitness (log ratio) has been recorded for this entry: GACCAAUCCGCCCUCAGAGCUCGAGAACAUCUUCGGAUGCAGAAGAGGCAGGCUUCGGUGGCGCGAUAGCGCCAACGUUCUCAACUUCCAAUGCAUCCCACCACAUGAUGAUGCCUGAAAAGCCUUGGUUUUUUG [U9C G44A C79U C86U G120A]
*A* 0.952

*Q* What value of polymerase ribozyme fitness (log ratio) has been recorded for this entry: GACCAAUCUGCCCUAAGAGCUCGAGAACAUCUUCGGAUGCAGAGGAGGCAGGCUUCGGUGUCGCGAUAGCGCCAACGUCCUCAACCUCCAAUGCAUCCCACCACAUGAUGAUGCCUGAAGAGCCUUGGUUUUUUG [C15A G61U]
*A* -0.806

*Q* What value of polymerase ribozyme fitness (log ratio) has been recorded for this entry: GACCAAUCUGCCCUCAGAGCUCGAGAACAUCUUCGGAUGCAGAGGAGGCAGGCUUCGGUGGCGCGAUAGCGCCAACGUCCUCAACCUCCAAUACAUCCCAUCACAUGAUGAUGCCUGAAGAGCCUUGGUUUUUUG [G93A C101U]
*A* -1.15

*Q* What value of polymerase ribozyme fitness (log ratio) has been recorded for this entry: GACCAAUCUGCCCUCAGAGCUCGAGAACAUCUUCGGGUGCAGAGGAGGUAGGCUUCGGUGGCGCGAUAGCGCCAACGUCCUAAACCCCCAAUGCAUCCCACCACAGGAUGAUGCCUGAAGAGCCUUGGUUUUGUG [A37G C49U C82A U87C U106G U133G]
*A* -2.13

*Q* What value of polymerase ribozyme fitness (log ratio) has been recorded for this entry: GACCAAUCUGCCCUCAGAGCUCGAGAACAUCUUCGGAUGCAGAGGAGGCAGGCUUCGGUGGCGCGAUAGCGCCAACGUCCUCAACCUCCAAUGCAUCCCACCACAUGAUGAUCCCUGAAGAACCUUGGUUUUUUG [G113C G122A]
*A* -3.11

*Q* What value of polymerase ribozyme fitness (log ratio) has been recorded for this entry: GACCAAUCUGCCCUCAGAGCUCGAGAACAUCUUCGGAUGCAGAGUUGGCAGGCUUAGGUGGCGCGAUAGCGCCAACGUCCUCAACCUCCAAUACAUCCCACCACAUGAUGAUGCCUGAAGAGCCUUGGUUUUUUG [G45U A46U C56A G93A]
*A* -4

*Q* What value of polymerase ribozyme fitness (log ratio) has been recorded for this entry: GACCAAUCUGCCCUCAGAGCUCGAGAACAUCUUCGGAUGCAGAGGAGGAAGGAUUCGGUGGCGCGAUAGUGCCAACGUCCUCAACAUCCAAUGCAUCCCACCACAUGAUGAGGCCUGAAGAGCCUUGAUUUUUUG [C49A C53A C70U C86A U112G G128A]
*A* -5.42

*Q* What value of polymerase ribozyme fitness (log ratio) has been recorded for this entry: GACCAAUCUGGCCUCAGAGCUUGAGAACAUCUUAGGUUGCAGAGGAGGCAGGCUUCGGUGGCGCGAUAGCGCCAACGUCCUCAACCUACAAUGCAGCCCACCACAUGAUGAUGCUUGAAGAGCCUUGGUUUUUUG [C11G C22U C34A A37U C88A U96G C115U]
*A* -7.3

*Q* What value of polymerase ribozyme fitness (log ratio) has been recorded for this entry: GACCAAUCUGCCCUCAGAGCUCGAGAACAUCUUCGGAUGCAGAGAAGGCGGACUUCGGUGUCGCGAUAGCGCCAACGUCCUCAACCUCCAAUGCAUCCCACCACAUGAUGAUGCCUGAAGAGCCUUGGUUGUUUG [G45A A50G G52A G61U U131G]
*A* -3.62

*Q* What value of polymerase ribozyme fitness (log ratio) has been recorded for this entry: GACCAAUCUUCCCUCAGAGCUCGAGAACAUCUUCGGAUGCAGAGGAGGCAGGCUUCGGUGGCGCGAUAGCGCCAACGCCCUCAACCUGCAAUGCAUCCCACCACAUGAUGAUGCCUGAAGAGCCUUGGUUUUUUG [G10U U78C C88G]
*A* -1.13

*Q* What value of polymerase ribozyme fitness (log ratio) has been recorded for this entry: GACCAAUCUGCCCUGAGAGCUCGAGAACAUCUUCGGAUGCAGAGGAGGCAGGCUUCGGUGGCGCGAUAGCGCCAACGUCCUCAACCUGCAAUGCAUCCCACCACAUGAUGAUGCCUGAAGAGCCUUGGUUUUUUG [C15G C88G]
*A* -3.07
